systemUnderTest: WRN (Homo sapiens)
Construct: A His-tagged construct of WRN (AA S2-S1235) was produced and used for the ATPase assay; His; made in house; host or cells: Sf9 insect cells (baculovirus, pFastBac1)
Sequence (Q14191 2-1235): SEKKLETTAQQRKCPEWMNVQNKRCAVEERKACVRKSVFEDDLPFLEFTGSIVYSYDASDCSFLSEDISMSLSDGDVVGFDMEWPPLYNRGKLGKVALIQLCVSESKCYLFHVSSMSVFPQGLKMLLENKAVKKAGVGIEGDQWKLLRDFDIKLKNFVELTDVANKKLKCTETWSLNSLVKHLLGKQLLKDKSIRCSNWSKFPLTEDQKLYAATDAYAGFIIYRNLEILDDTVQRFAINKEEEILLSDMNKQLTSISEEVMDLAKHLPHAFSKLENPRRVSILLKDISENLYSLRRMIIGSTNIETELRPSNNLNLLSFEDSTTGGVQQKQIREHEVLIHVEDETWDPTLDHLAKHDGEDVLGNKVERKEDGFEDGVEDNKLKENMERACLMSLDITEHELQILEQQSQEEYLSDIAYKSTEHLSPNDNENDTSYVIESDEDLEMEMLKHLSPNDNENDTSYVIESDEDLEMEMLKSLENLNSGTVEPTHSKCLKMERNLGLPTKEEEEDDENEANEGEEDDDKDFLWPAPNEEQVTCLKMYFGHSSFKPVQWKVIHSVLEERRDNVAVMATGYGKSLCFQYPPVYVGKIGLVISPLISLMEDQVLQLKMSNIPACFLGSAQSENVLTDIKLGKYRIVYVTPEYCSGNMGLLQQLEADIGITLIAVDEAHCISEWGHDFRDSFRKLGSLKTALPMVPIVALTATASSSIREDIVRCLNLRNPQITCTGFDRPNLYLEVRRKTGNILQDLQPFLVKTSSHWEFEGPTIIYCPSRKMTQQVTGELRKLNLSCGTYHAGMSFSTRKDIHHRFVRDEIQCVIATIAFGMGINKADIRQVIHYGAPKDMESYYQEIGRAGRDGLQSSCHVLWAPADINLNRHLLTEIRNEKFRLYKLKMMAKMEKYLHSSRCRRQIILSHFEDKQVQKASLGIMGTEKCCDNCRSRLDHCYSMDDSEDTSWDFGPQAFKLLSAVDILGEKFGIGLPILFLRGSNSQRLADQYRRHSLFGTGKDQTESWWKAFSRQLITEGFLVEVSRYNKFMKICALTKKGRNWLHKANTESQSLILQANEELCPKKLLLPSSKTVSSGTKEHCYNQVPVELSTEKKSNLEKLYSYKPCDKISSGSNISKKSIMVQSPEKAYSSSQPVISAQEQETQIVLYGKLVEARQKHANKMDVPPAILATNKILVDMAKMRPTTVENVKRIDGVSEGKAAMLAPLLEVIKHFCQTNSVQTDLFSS
measurementNotes: WRN Helicase activity assay (fluorescence DNA unwinding)
Assay type: biochemical
recordedConditions: 1-hr pre-incubation with enzyme; 100 μM ATP, 25 nM forked dsDNA, 1 nM WRN; geometric mean of at least 2 replicates
Experimental: Compounds of the examples were tested for WRN helicase activity. […] The WRN Helicase assay was designed to measure increase in fluorescence signal using a fluorescence based, donor-quencher paired forked dsDNA oligomer substrate (custom synthesis from Sigma-Aldrich) prepared by annealing equal amounts of oligo GPat-1 ([BHQ2][…]) and oligo GPat-2 ([…][TAM]). […]
Field: IC50. Provide a value for each of the compounds that follow.

**Q:** Recorded IC50 of C=CC(=O)Nc1ccccc1-c1c(CC)nc2n(CC(=O)Nc3ccc(CC)cc3)c3ccccc3n2c1=O , please.
**A:** < 100 nM

**Q:** Repeat for the following compound: C=CC(=O)Nc1nn(C)cc1-c1c(CC)nc2n(CC(=O)Nc3ccc(C(F)(F)F)cc3)c3ccccc3n2c1=O
**A:** 5000 to 20000 nM

**Q:** What would you report for C=CC(=O)Nc1ccccc1-c1c(CC)c(C#N)c2n(CC(=O)Nc3ccc(C(F)(F)F)cc3)c3ccccc3n2c1=O ?
**A:** 100 to 500 nM

**Q:** # repeat for C=CC(=O)Nc1ccc(C(=O)OC)cc1-c1c(CC)nc2n(CC(=O)Nc3ccc(F)cc3)c3ccccc3n2c1=O
**A:** < 100 nM

**Q:** Next: C=CC(=O)Nc1ccccc1-c1c(CC)nc2n(CC(=O)Nc3ccc(F)cc3C)c3ccccc3n2c1=O
**A:** < 100 nM

**Q:** Next: C=CS(=O)(=O)Nc1ccccc1-c1c(CC)nc2n(CC(=O)Nc3ccc(C(F)(F)F)cc3)c3c(n2c1=O)CCCC3
**A:** < 100 nM

**Q:** Also, C=CC(=O)Nc1ccccc1-c1c(CC)nc2n(CC(=O)Nc3ccc(C(F)(F)F)cc3Cl)c3ccccc3n2c1=O please.
**A:** < 100 nM

----------
For each record, write down the corresponding IC50.
systemUnderTest: WRN (Homo sapiens)
Construct: A His-tagged construct of WRN (AA S2-S1235) was produced and used for the ATPase assay; His; made in house; host or cells: Sf9 insect cells (baculovirus, pFastBac1)
measurementNotes: WRN ATPase activity assay (ADP-Glo)
Format: biochemical
recordedConditions: 1-hr pre-incubation with enzyme; 100 μM ATP, 25 nM forked dsDNA, 1 nM WRN; geometric mean of at least 2 replicates
Procedure: Compounds of the Examples were tested for WRN ATPase activity. WRN ATPase activity catalyzes ATP hydrolysis to produce ADP and phosphate. DNA encoding the target protein, 6×HIS-TEV-WRN-517-945, was produced, cloned and transfected as detailed in Example D. The amount of ADP produced was measured using ADP-Glo™ Kinase Assay kit from Promega Corporation in a Greiner white regular volume 384 wells assay plate (Greiner #781075). […]

**Q:** What does the record list as IC50 for C=CC(=O)Nc1ccccc1-c1c(CC)nc2n(CC(=O)Nc3ccc(F)cc3)c3ccccc3n2c1=O ?
**A:** < 100 nM

**Q:** Okay, and C=CC(=O)Nc1ccc(C(=O)N2CC3CC3(O)C2)cc1-c1c(CC)nc2n(CC(=O)Nc3ccc(F)cc3)c3ccccc3n2c1=O (stereo not drawn) ?
**A:** 100 to 500 nM

**Q:** Consider next the molecule C=CS(=O)(=O)Nc1ccccc1-c1c(CC)c(C#N)c2n(CC(=O)Nc3ccc(C(F)(F)F)cc3)c3ccccc3n2c1=O in the same way.
**A:** 100 to 500 nM

**Q:** Then what about the molecule C=CC(=O)Nc1ccccc1-c1c(CC)nc2n(CC(=O)Nc3ccc(C(F)(F)F)cc3)c3ncccc3n2c1=O ?
**A:** 100 to 500 nM

**Q:** Please give the result for C=CC(=O)Nc1ccccc1-c1c(CC)nc2n(CC(=O)Nc3ccc(CC)cc3)c3ccccc3n2c1=O too.
**A:** < 100 nM

**Q:** Proceed to C=CC(=O)Nc1ccccc1-c1c(CC)nc2n(CC(=O)Nc3ccc(C(F)(F)F)cc3)c3c(n2c1=O)CCCC3
**A:** < 100 nM

**Q:** Thanks! And C=CC(=O)Nc1ccc(C(=O)NCCO)cc1-c1c(CC)nc2n(CC(=O)Nc3ccc(F)cc3)c3ccccc3n2c1=O ?
**A:** 100 to 500 nM

**Q:** What about C=CS(=O)(=O)Nc1ccccc1-c1c(CC)nc2n(CC(=O)Nc3ccc(C(F)(F)F)cc3)c3c(n2c1=O)CCCC3 ?
**A:** < 100 nM

**Q:** Also C=CC(=O)Nc1ccccc1-c1c(CC)nc2n(CC(=O)Nc3ccc(C(F)(F)F)cc3Cl)c3ccccc3n2c1=O , if possible.
**A:** < 100 nM
